# tgt: T1, PSMA Fab
# T1 construct: also called 006 PSMA Fab; anti-PSMA Fab
# experiment.description: BLI (Octet); PSMA Fab on sensor-loaded biotinylated peptide, 1:1 model
Where no end group is shown, it is not given here.
quantity.name: Off rate t1/2 (min)

binder | quantity.name | display.unit | test.value
VTKWCIPPWMCEVT [Peptide-230] | Off rate t1/2 | min | 6.4
LMKWCTPRWMCAAE (cysteine pairing not given here; also: biotinylated, site not given here, PSMA mask peptide) [Peptide-179] | Off rate t1/2 | min | 1.2
LDKWCVPKWMCSGL [Peptide-232] | Off rate t1/2 | min | 2.1

The values you see were collected from patent US20260242478A1.
